Experiment Notes: Ketamine wafer pharmacokinetics and absolute bioavailability, crossover study in healthy volunteers
Study Conditions: human, plasma, iv, 10 mg, Median CL, IV dosing 10 mg
Measurement Kind: clearance (mL/min)
One number for each entry, in mL/min.

Ask: Please list clearance recorded for the compound CNC1(c2ccccc2Cl)CCCCC1=O (racemic)
Reply: 628

====

Experiment Notes: Ketamine wafer pharmacokinetics and absolute bioavailability, crossover study in healthy volunteers
Study Conditions: human, plasma, iv, 10 mg, Cmax,I, gmean of eight volunteers; 10 mg as 30 minute IV infusion
Measurement Kind: Cmax (ng/mL)
Answers are plain numbers, in ng/mL.

Ask: Please list Cmax recorded for the compound CNC1(c2ccccc2Cl)CCCCC1=O (racemic) [RS ketamine, ketamine]
Reply: 128

====

Experiment Notes: Ketamine wafer pharmacokinetics and absolute bioavailability, crossover study in healthy volunteers
Study Conditions: human, plasma, iv, 10 mg
Measurement Kind: MRT (h)
Answers are plain numbers, in h.

Ask: Please list MRT recorded for the compound CNC1(c2ccccc2Cl)CCCCC1=O (racemic)
Reply: 3.9

====

Experiment Notes: Ketamine wafer pharmacokinetics and absolute bioavailability, crossover study in healthy volunteers
Study Conditions: human, plasma, other: sublingual, 25 mg, AUCINF_, individual subjects; 25 mg SL wafer
Measurement Kind: AUC (ng·h/mL)
Numbers only, in ng·h/mL.

Ask: Please list AUC recorded for the molecule CNC1(c2ccccc2Cl)CCCCC1=O (racemic) [RS ketamine, ketamine]
Reply: 184

====

Experiment Notes: Ketamine wafer pharmacokinetics and absolute bioavailability, crossover study in healthy volunteers
Study Conditions: human, plasma, other: sublingual, 25 mg
Measurement Kind: bioavailability

Ask: Please list bioavailability recorded for the compound CNC1(c2ccccc2Cl)CCCCC1=O (racemic) [RS ketamine, ketamine]
Reply: 23 to 38%
